Molecular target: T1, Human GDF15 Fc (human, UniProt Q99988 195-308, limits assumed, biotinylated (EZ-Link Sulfo-NHS-Biotinylation Kit) in the SPR assay)
T1 construct: also called human GDF15-Fc fusion; biotinylated Human GDF15 Fc; not shown: Fc part
T1 sequence: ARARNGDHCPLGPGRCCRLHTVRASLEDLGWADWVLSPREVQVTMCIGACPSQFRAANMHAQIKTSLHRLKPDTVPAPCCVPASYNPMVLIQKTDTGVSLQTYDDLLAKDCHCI
Experiment: SPR Biacore 8K; biotinylated antigen captured, Fab analyte
Method: Kinetic analysis was conducted at 25° C. in HBS-EP+running buffer (10 mM HEPES pH 7.4, 150 mM NaCl, 3 mM EDTA, 0.05% Surfactant P20) using a Biacore 8K optical biosensor (Cytiva, Marlborough, MA). […] Each experiment cycle began with an injection (300 s at 2 μL/min) overflow cells 1 and 2 of a 1:100 solution of biotin CAPture reagent (Cytiva) in running buffer. […] The dissociation of the antibodies were monitored for 3420 s. […]
outcome_measure: pKd
// pKd here means minus log10 of the molar concentration (mol/L)

Task: Given the entry GDF15 antibody agent Clone I, Fab (Fab, V domains shown, Fab; CH1 and CL of the Fab not specified; also called Fab of Clone I) VH: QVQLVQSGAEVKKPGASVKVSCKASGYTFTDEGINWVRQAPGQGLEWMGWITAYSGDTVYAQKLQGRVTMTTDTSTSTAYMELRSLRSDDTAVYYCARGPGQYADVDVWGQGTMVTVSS VL: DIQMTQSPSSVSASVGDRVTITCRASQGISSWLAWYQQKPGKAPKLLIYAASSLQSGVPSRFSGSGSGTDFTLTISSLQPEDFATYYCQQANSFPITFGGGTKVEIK , report its measured pKd.
Result: 10.17

Task: Recorded pKd for GDF15 antibody agent Clone L, Fab (Fab, V domains shown, Fab; CH1 and CL of the Fab not specified; also called Fab of Clone L) VH: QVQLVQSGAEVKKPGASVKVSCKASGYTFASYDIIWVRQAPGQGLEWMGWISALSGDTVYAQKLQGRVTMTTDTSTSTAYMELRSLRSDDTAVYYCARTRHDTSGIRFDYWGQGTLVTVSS VL: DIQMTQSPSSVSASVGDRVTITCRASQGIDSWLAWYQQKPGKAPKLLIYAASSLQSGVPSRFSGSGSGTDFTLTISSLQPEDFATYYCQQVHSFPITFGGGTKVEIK , please?
Result: 9.84

Task: Fill in the blank: the reported pKd of GDF15 antibody agent Clone J, Fab (Fab, V domains shown, Fab; CH1 and CL of the Fab not specified; also called Fab of Clone J) VH: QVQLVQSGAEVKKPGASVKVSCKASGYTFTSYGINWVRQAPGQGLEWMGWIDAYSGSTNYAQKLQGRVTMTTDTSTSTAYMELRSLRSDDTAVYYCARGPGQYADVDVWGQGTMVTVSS VL: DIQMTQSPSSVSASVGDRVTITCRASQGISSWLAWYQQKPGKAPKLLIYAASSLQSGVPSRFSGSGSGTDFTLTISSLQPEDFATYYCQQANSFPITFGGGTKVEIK is ____.
Result: 10.05

Source: patent US20250382359A1
